Target or system: T1, anti-CD28 Fab (SEQ ID NOs: 202, 203)
T1 construct: biotinylated and captured on neutravidin coated plates in the phage ELISA
T1 sequence (VH, as listed by the source, chain 1 of 2): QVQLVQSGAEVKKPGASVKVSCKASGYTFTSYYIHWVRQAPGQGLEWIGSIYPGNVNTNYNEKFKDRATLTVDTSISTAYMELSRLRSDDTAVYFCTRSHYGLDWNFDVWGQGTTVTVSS
T1 sequence (VL, as listed by the source, chain 2 of 2): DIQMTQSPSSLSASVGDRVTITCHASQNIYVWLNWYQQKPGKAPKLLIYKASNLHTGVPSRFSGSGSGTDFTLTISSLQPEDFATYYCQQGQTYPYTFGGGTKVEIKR
Experiment: phage ELISA on captured Fab;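 also: ELISA with clonal phage supernatants added to wells preincubated with CD28 antigen or with blocking buffer only, bound phage detected by HRP-conjugated anti-M13 antibody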
Measured quantity: Anti-CD28 Fab (SEQ ID NOs: 202, 203) signal
// return just the number, without any unit appended

What measured Anti-CD28 Fab (SEQ ID NOs: 202, 203) signal goes with YCDGHSTEYMEKCL (on phage, pIII fusion) [Phage-453] ? 1.68

What measured Anti-CD28 Fab (SEQ ID NOs: 202, 203) signal goes with YCDGHSLEYIGKCL (on phage, pIII fusion) [Phage-494] ? 1.63

What measured Anti-CD28 Fab (SEQ ID NOs: 202, 203) signal goes with YCEGHLPMYMIKCL (on phage, pIII fusion) [Phage-464] ? 1.66

What measured Anti-CD28 Fab (SEQ ID NOs: 202, 203) signal goes with YCDGHAKEYIQKCL (on phage, pIII fusion) [Phage-526] ? 1.58

What measured Anti-CD28 Fab (SEQ ID NOs: 202, 203) signal goes with YCEGHLPQYMTKCI (on phage, pIII fusion) [Phage-590] ? 1.44

What measured Anti-CD28 Fab (SEQ ID NOs: 202, 203) signal goes with YCAGHTQEYIEKCL (on phage, pIII fusion) [Phage-579] ? 1.47

What measured Anti-CD28 Fab (SEQ ID NOs: 202, 203) signal goes with YCEGHSAMYIWKCL (on phage, pIII fusion) [Phage-558] ? 1.52

What measured Anti-CD28 Fab (SEQ ID NOs: 202, 203) signal goes with YCEGHSWEHMEKCL (on phage, pIII fusion) [Phage-523] ? 1.58

What measured Anti-CD28 Fab (SEQ ID NOs: 202, 203) signal goes with YCEGHSIQYMTKCL (on phage, pIII fusion) [Phage-551] ? 1.53

What measured Anti-CD28 Fab (SEQ ID NOs: 202, 203) signal goes with YCDGHKAEYMQKCL (on phage, pIII fusion) [Phage-565] ? 1.5

What measured Anti-CD28 Fab (SEQ ID NOs: 202, 203) signal goes with YCDGHGPQYIQKCL (on phage, pIII fusion) [Phage-479] ? 1.64

What measured Anti-CD28 Fab (SEQ ID NOs: 202, 203) signal goes with YCEGHSQEYMAKCL (on phage, pIII fusion) [Phage-596] ? 1.44

What measured Anti-CD28 Fab (SEQ ID NOs: 202, 203) signal goes with YCAGHDQQYMEKCL (on phage, pIII fusion) [Phage-543] ? 1.55

What measured Anti-CD28 Fab (SEQ ID NOs: 202, 203) signal goes with YCDGHSEVYMAKCL (on phage, pIII fusion) [Phage-471] ? 1.66

What measured Anti-CD28 Fab (SEQ ID NOs: 202, 203) signal goes with YCAGHLPEFMDKCL (on phage, pIII fusion) [Phage-468] ? 1.66

What measured Anti-CD28 Fab (SEQ ID NOs: 202, 203) signal goes with YCDGHSVEYLDKCL (on phage, pIII fusion) [Phage-553] ? 1.53
